No end group written: not given here.
Quick reference: time to complete eradication of the listed items.

FLQRIRGALGRLF [GHaR6R]
< 15 min

Now look at this one.
Data request: Which time to complete eradication value belongs to FLQRIIGRLGRLF [GHaR8R] ?
Data returned: < 15 min

====

Quick reference: MIC of the listed items.
# System: P. aeruginosa PAO1 (wild type)
# Assay type: cell-based, Pseudomonas aeruginosa
# Measurement conditions: PAO1
No end group written: not given here.
// units = µM; emit number, no label

FLQRIRGALGRLF [GHaR6R]
3.1

Data request: Which MIC value belongs to FLQRIIGRLGRLF [GHaR8R] ?
Data returned: 6.2

Data request: Which MIC value belongs to FLQRIIGALGRLF [GHaR] ?
Data returned: 25

Data request: Which MIC value belongs to FLQRIIGAWGRLF [GHaR9W] ?
Data returned: 25

====

# Tested on: Escherichia coli (ATCC 25922)
# Assay type: cell-based
# Measurement conditions: ATCC 25922, 24 h
No end group written: not given here.
Quick reference: MBC of the listed items.
// units = µM; emit number, no label

Solved cases (2 shown):
FLQRIIRALGRLF [GHaR7R]
12.5
FLQRIIGALGRLF [GHaR]
6.2

Data request: Which MBC value belongs to FLQRIIGAWGRLF [GHaR9W] ?
Data returned: 12.5

Data request: Which MBC value belongs to FLQRIRGALGRLF [GHaR6R] ?
Data returned: 12.5

Data request: Which MBC value belongs to FLQRIIGRLGRLF [GHaR8R] ?
Data returned: 3.1

====

# System: Candida albicans (ATCC 10231)
# Type: cell-based
# Measurement conditions: ATCC 10231, 24 h
No end group written: not given here.
Value type: MBC

FLQRIIGALGRLF [GHaR]
50 µM
FLQRIRGALGRLF [GHaR6R]
50 µM
FLQRIIRALGRLF [GHaR7R]
25 µM
FLQRIIGARGRLF [GHaR9R]
> 50 µM
FLQRIIGRLGRLF [GHaR8R]
12.5 µM

Now look at this one.
Data request: Lab note: need MBC with Candida albicans (ATCC 10231) for entry FLQRIIGAWGRLF [GHaR9W] , please look it up.
Data returned: 25 µM

====

# System: MRSA-2, methicillin-resistant S. aureus (clinically isolated, No.2)
# Format: cell-based, Staphylococcus aureus
# Measurement conditions: -2, methicillin-resistant (clinically isolated, No.2, 24 h)
No end group written: not given here.
Value type: MBC (µM)
// units = µM; emit number, no label

Solved cases (4 shown):
FLQRIRGALGRLF [GHaR6R]
25
FLQRIIGAWGRLF [GHaR9W]
12.5
FLQRIIGALGRLF [GHaR]
12.5
FLQRIIGRLGRLF [GHaR8R]
12.5

Data request: Lab note: need MBC with MRSA-2, methicillin-resistant S. aureus (clinically isolated, No.2) for entry FLQRIIRALGRLF [GHaR7R] , please look it up.
Data returned: 50
